measured-on: Prostaglandin G/H synthase 1 (Homo sapiens)
Sequence (P23219 whole entry): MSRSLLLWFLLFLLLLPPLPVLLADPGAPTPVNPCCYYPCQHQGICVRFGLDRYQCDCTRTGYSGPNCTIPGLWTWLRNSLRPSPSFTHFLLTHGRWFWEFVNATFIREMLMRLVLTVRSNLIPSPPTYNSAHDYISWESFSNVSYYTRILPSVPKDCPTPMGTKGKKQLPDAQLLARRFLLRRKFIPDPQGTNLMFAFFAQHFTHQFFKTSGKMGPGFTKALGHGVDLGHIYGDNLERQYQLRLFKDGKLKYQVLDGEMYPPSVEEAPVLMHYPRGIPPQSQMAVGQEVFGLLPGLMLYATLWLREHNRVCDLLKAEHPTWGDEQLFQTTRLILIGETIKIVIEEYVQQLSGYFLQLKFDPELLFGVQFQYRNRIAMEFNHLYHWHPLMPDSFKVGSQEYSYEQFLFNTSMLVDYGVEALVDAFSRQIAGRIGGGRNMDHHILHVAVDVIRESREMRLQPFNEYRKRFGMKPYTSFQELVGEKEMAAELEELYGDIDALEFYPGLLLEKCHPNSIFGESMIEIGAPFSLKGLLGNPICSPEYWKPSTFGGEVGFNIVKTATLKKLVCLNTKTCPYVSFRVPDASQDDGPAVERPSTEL
assay-text: Inhibition of Prostaglandin G/H synthase 1 at 5 uM
pIC50: −log10 of the molar value.
experimental-readout: pIC50

// map C[S+]([O-])c1ccc(-c2nc(-c3ccncc3)c(-c3ccc(F)cc3)[nH]2)cc1 (stereo unspecified) to recorded pIC50 (system: Prostaglandin G/H synthase 1 (Homo sapiens))
< 5.30

* * *

Reported inhibition values follow for various compounds
measured-on: cAMP-dependent protein kinase (PKA) (Homo sapiens) (UniProt P22694+P17612+P22612)
assay-text: Inhibition of Protein kinase A at 5 uM
Assay type: protein assay

compound	inhibition
COc1cc(N)[nH]c2nc(-c3ccc(F)cc3)c(-c3ccncc3)c1-2	0%
CCCCOc1cc(N)[nH]c2nc(-c3ccc(F)cc3)c(-c3ccncc3)c1-2	0%
Nc1ccc2c(-c3ccncc3)c(-c3ccc(F)cc3)[nH]c2n1	16%
C[S+]([O-])c1ccc(-c2nc(-c3ccc(F)cc3)c(-c3ccncc3)[nH]2)cc1 (configuration not stated)	0%
Nc1cc(OCCCc2ccccc2)c2c(-c3ccncc3)c(-c3ccc(F)cc3)[nH]c2n1	0%

Please report the recorded inhibition for COc1cccc(COc2cc(N)[nH]c3nc(-c4ccc(F)cc4)c(-c4ccncc4)c2-3)c1 .
0%

Please report the recorded inhibition for Nc1cc(OCc2ccccc2)c2c(-c3ccncc3)c(-c3ccc(F)cc3)[nH]c2n1 .
0%
